Reference source for all entries: patent US8518912B2

Target: human P2Y12 receptor (Homo sapiens)
Experiment: P2Y12 receptor binding assay
Settings: CHO cells with recombinant human P2Y12 receptor; tritium-labeled 2-methyl-S-ADP; 2 hours at RT
pIC50: −log10 of the molar value.
METRIC NAME: pIC50

As a guide, the following entries are already answered.
CCCCOC(=O)N1CCN(C(=O)[C@H](CCP(=O)(NCC(=O)OCC)NCC(=O)OCC)NC(=O)c2cc(N3CC[C@H](OC)C3)nc(-c3ccccc3)n2)CC1 ... 6.51
CCOC(=O)N1CCN(C(=O)[C@H](CP(=O)(O)O)NC(=O)c2cc(N3CC[C@H](OC)C3)nc(-c3ccccc3)n2)CC1C (stereo partly drawn) ... 7.21
CCCCOC(=O)N1CCN(C(=O)[C@H](CP(=O)(O)OCOC(C)=O)NC(=O)c2cc(N3CC[C@H](OC)C3)nc(-c3ccccc3)n2)CC1 (mixture of isomers) ... 8.30
CCCCOC(=O)N1CCN(C(=O)[C@H](CP(=O)(OCOC(=O)CCC)OCOC(=O)CCC)NC(=O)c2cc(N3CC[C@H](OC)C3)nc(-c3ccccc3)n2)CC1 ... 8.15

[A] CCCCOC(=O)N1CCN(C(=O)[C@H](CP(=O)(O)O)NC(=O)c2cc(NCC)nc(-c3ccccc3)n2)CC1
[B] CCCCOC(=O)N1CCN(C(=O)C(NC(=O)c2cc(N3CC[C@H](OC)C3)nc(-c3ccccc3)n2)P(=O)(O)O)CC1 (stereo partly drawn)
# argmax over pIC50 for candidates A and B Give the label of your selection.
A

###

Target: human P2Y12 receptor (Homo sapiens, UniProt Q9H244)
Sequence (Q9H244 whole entry): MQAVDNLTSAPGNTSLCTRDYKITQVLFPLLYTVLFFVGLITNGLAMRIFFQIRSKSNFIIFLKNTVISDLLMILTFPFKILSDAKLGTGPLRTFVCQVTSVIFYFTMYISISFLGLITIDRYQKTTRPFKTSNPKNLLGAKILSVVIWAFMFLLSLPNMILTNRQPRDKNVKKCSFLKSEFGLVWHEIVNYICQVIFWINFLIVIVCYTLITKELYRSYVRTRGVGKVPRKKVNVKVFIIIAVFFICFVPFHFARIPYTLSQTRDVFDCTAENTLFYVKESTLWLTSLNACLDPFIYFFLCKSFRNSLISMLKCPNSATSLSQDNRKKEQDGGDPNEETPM
Experiment: P2Y12 receptor binding assay
Details: CHO cells with recombinant human P2Y12 receptor; tritium-labeled 2-methyl-S-ADP; 2 hours at RT
METRIC NAME: IC50 (nM)

As a guide, the following entries are already answered.
CCCCOC(=O)N1CCN(C(=O)[C@H](CCP(=O)(O)O)NC(=O)c2cc(N3CC[C@H](OC)C3)nc(-c3cccc(F)c3)n2)CC1 ... 78
CCCCOC(=O)N1CCN(C(=O)[C@H](CCP(=O)(OCOC(=O)C(C)(C)C)OCOC(=O)C(C)(C)C)NC(=O)c2cc(N3CC[C@H](OC)C3)nc(-c3ccccc3)n2)CC1 ... 49

[I] CCCCOC(=O)N1CCN(C(=O)[C@H](CP(=O)(N[C@H](C(=O)OC)c2ccccc2)N[C@H](C(=O)OC)c2ccccc2)NC(=O)c2cc(N3CC[C@H](OC)C3)nc(-c3ccccc3)n2)CC1
[II] CCCCOC(=O)N1CCN(C(=O)[C@@H](CCCP(=O)(O)O)NC(=O)c2cc(N3CC[C@H](OC)C3)nc(-c3ccccc3)n2)CC1
[III] CCCCOC(=O)N1CCN(C(=O)[C@H](CCP(=O)(O)O)NC(=O)c2cc(N3CCOCC3)nc(-c3ccccc3)n2)CC1
[IV] CCCCOC(=O)N1CCN(C(=O)[C@H](CP(=O)(OCOC(=O)OC(C)C)OCOC(=O)OC(C)C)NC(=O)c2cc(N3CC[C@H](OC)C3)nc(-c3ccccc3)n2)CC1
Hey, can you sort those molecules up there by IC50, smallest first? Labels, requested order.
III, I, IV, II

###

Target: human P2Y12 receptor (Homo sapiens)
Assay: P2Y12 receptor binding assay
Conditions: CHO cells with recombinant human P2Y12 receptor; tritium-labeled 2-methyl-S-ADP; 2 hours at RT
METRIC NAME: IC50 (nM)

As a guide, the following entries are already answered.
CCCCOC(=O)N1CCN(C(=O)[C@H](CP(=O)(N[C@@H](C)C(=O)OC)N[C@@H](C)C(=O)OC)NC(=O)c2cc(N3CC[C@H](OC)C3)nc(-c3ccccc3)n2)CC1 [Example 89] ... 162
CCCCOC(=O)N1CCN(C(=O)[C@H](CP(=O)(NC(C)(C)C(=O)OCC)NC(C)(C)C(=O)OCC)NC(=O)c2cc(N3CC[C@H](OC)C3)nc(-c3ccccc3)n2)CC1 [Example 92] ... 42
CCOC(=O)N1CCN(C(=O)[C@H](Cc2cccc(P(=O)(O)O)c2)NC(=O)c2cc(N3CC[C@H](OC)C3)nc(-c3ccccc3)n2)CC1 [Example 67] ... 13
CCCCOC(=O)N1CCN(C(=O)[C@H](CP(=O)(O)O)NC(=O)c2cc(C3CC3)nc(-c3ccccc3)n2)CC1 [Example 35] ... 14
CCOC(=O)N1CCN(C(=O)[C@H](CP(=O)(OCOC(C)=O)OCOC(C)=O)NC(=O)c2cc(N3CC[C@H](OC)C3)nc(-c3ccccc3)n2)CC1 [Example 120] ... 7

[I] CCCCOC(=O)N1CCN(C(=O)[C@H](CP(=O)(O)O)NC(=O)c2cc(O[C@H]3CCOC3)nc(-c3ccccc3)n2)CC1 [Example 37]
[II] CCOC(=O)N1CCN(C(=O)[C@H](Cc2ccc(CP(=O)(O)O)cc2)NC(=O)c2cc(N3CC[C@H](OC)C3)nc(-c3ccccc3)n2)CC1 [Example 61]
[III] CCCC(=O)OCOP(=O)(OCOC(=O)CCC)c1ccc(C[C@H](NC(=O)c2cc(N3CC[C@H](OC)C3)nc(-c3ccccc3)n2)C(=O)N2CCN(C(=O)OCC)CC2)cc1 [Example 124]
Hey, can you sort those molecules up there by IC50, smallest first? Labels, requested order.
II, III, I
(II: 7.5 nM, III: 36 nM, I: 78 nM)

###

Molecular target: UniProtKB Q9H244
Assay: P2Y12 receptor binding assay
Conditions: CHO cells with recombinant human P2Y12 receptor; tritium-labeled 2-methyl-S-ADP; 2 hours at RT
Procedure: Chinese Hamster Ovary (CHO) cells with recombinant expression of the human P2Y12 receptor were cultured in 24 well cell-culture plates. Cells were washed three times with binding buffer (50 mM Tris pH 7.4, 100 mM NaCl, […], 0.5% BSA). The cells were then incubated with 0.5 ml per well binding buffer containing tritium-labeled 2-methyl-thio-adenosine 5′-diphosphate (2-methyl-S-ADP) (between 100,000 and 300,000 dpm per well) and various concentrations of test compounds. […]
METRIC NAME: IC50 (nM)

As a guide, the following entries are already answered.
CCCCOC(=O)N1CCN(C(=O)[C@H](CP(=O)(O)O)NC(=O)c2cc(CCCOC)nc(-c3ccccc3)n2)CC1 ... 5.5
CCCCOC(=O)N1CCN(C(=O)[C@H](CP(=O)(O[C@@H](C)C(=O)OCC)O[C@@H](C)C(=O)OCC)NC(=O)c2cc(N3CC[C@H](OC)C3)nc(-c3ccccc3)n2)CC1 ... 153
CCCCOC(=O)N1CCN(C(=O)[C@H](CP(=O)(OCc2oc(=O)oc2C)OCc2oc(=O)oc2C)NC(=O)c2cc(N3CC[C@H](OC)C3)nc(-c3ccccc3)n2)CC1 ... 3.2
CCCCOC(=O)N1CCN(C(=O)[C@H](CP2(=O)Nc3ccccc3CO2)NC(=O)c2cc(N3CC[C@H](OC)C3)nc(-c3ccccc3)n2)CC1 (mixture of isomers) ... 3.1

[I] CCCCOC(=O)N1CCN(C(=O)[C@H](CP(=O)(O)O)NC(=O)c2cc(N3CCN(C)CC3)nc(-c3ccccc3)n2)CC1
[II] CCCCOC(=O)N1CCN(C(=O)[C@H](CP(=O)(O)O)NC(=O)c2cc(-c3ccc(OC)cc3)nc(-c3ccccc3)n2)CC1
# argmax over IC50 for candidates I and II Give the label of your selection.
II

###

Target: human P2Y12 receptor (Homo sapiens, UniProt Q9H244)
Test: P2Y12 receptor binding assay
Details: CHO cells with recombinant human P2Y12 receptor; tritium-labeled 2-methyl-S-ADP; 2 hours at RT
METRIC NAME: IC50 (nM)

CCCCOC(=O)N1CCN(C(=O)[C@H](CP(=O)(OCOC(=O)OC)OCOC(=O)OC)NC(=O)c2cc(N3CC[C@H](OC)C3)nc(-c3ccccc3)n2)CC1 ... 3.5
CCCCOC(=O)N1CCN(C(=O)[C@H](CP2(=O)OCc3cccc(C)c3O2)NC(=O)c2cc(N3CC[C@H](OC)C3)nc(-c3ccccc3)n2)CC1 (mixture of isomers) ... 2.8
CCCCOC(=O)N1CCN(C(=O)[C@H](CP2(=O)OCCCO2)NC(=O)c2cc(N3CC[C@H](OC)C3)nc(-c3ccccc3)n2)CC1 ... 208
CCCCOC(=O)N1CCN(C(=O)C(NC(=O)c2cc(N3CC[C@H](OC)C3)nc(-c3ccccc3)n2)c2cccc(P(=O)(O)O)c2)CC1 (stereo partly drawn) ... 4.5

[a] CCCCOC(=O)N1CCN(C(=O)[C@H](CP(=O)(N[C@@H](Cc2ccccc2)C(=O)OC)N[C@@H](Cc2ccccc2)C(=O)OC)NC(=O)c2cc(N3CC[C@H](OC)C3)nc(-c3ccccc3)n2)CC1
[b] CCCCOC(=O)N1CCN(C(=O)[C@H](CCP(=O)(O)O)NC(=O)c2cc(-n3cccn3)nc(-c3ccccc3)n2)CC1
Please choose the item with the lower IC50 value from this pair: a and b Give the label of your selection.
b
